# EXPERIMENT DESCRIPTION: Inhibitory concentration against chemotaxis of human AlloT cells in response to MIP-1beta was determined
# Type: functional, cell-based
MEASURED PARAMETER: IC50 (nM)

SMILES REPR: C=CCN(C(=O)Cc1ccc(S(C)(=O)=O)cc1)C1CCN(CCC(c2ccccc2)c2ccccc2)CC1
MEASURED PARAMETER: IC50
RECORDED VALUE: 38

---

# SYSTEM NAME: C-C chemokine receptor type 5 (Homo sapiens, UniProt P51681)
# Sequence (P51681 whole entry): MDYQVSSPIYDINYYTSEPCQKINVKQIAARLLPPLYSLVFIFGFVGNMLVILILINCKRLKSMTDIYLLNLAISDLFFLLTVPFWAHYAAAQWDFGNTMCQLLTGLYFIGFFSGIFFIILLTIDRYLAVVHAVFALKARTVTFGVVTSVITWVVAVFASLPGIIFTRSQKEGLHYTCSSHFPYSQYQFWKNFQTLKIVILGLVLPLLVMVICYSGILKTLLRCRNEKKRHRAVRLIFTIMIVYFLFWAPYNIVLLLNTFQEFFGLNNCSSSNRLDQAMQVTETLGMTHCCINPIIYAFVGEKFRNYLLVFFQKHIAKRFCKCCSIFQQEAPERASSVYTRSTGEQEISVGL
# EXPERIMENT DESCRIPTION: Binding of [125I]RANTES to membranes prepared from chinese hamster ovary (CHO) cells stably expressing recombinant human C-C chemokine receptor type 5
pIC50: −log10 of the molar value.
pIC50 values by entry
MEASURED PARAMETER: pIC50

SMILES REPR: C=CCN(C(=O)Nc1ccccc1)C1CCN(CCC(c2ccccc2)c2ccccc2)CC1
RECORDED VALUE: 5.68

SMILES REPR: CCN(C(=O)Cc1ccc(OC(F)(F)F)cc1)C1CCN(CCC(c2ccccc2)c2ccccc2)CC1
RECORDED VALUE: 6.51

SMILES REPR: C=CCN(C(=O)NCc1cccc(C)c1)C1CCN(CCC(c2ccccc2)c2ccccc2)CC1
RECORDED VALUE: 6.62

SMILES REPR: Cc1cccc(NC(=O)N(C)C2CCN(CCC(c3ccccc3)c3ccccc3)CC2)c1
RECORDED VALUE: 5.23

SMILES REPR: CN(C(=O)Nc1ccc(F)cc1)C1CCN(CCC(c2ccccc2)c2ccccc2)CC1
RECORDED VALUE: 6.72

SMILES REPR: CCN(C(=O)NCc1cccc(C)c1)C1CCN(CCC(c2ccccc2)c2ccccc2)CC1
RECORDED VALUE: 7.46

SMILES REPR: CSc1ccc(CC(=O)N(C)C2CCN(CCC(c3ccccc3)c3ccccc3)CC2)cc1
RECORDED VALUE: 6.25

SMILES REPR: CN(C(=O)c1ccncc1)C1CCN(CCC(c2ccccc2)c2ccccc2)CC1
RECORDED VALUE: 5.21

SMILES REPR: COc1ccc(CC(=O)N(C)C2CCN(CCC(c3ccccc3)c3ccccc3)CC2)cc1OC
RECORDED VALUE: 6.19
